experiment: protein stability index of a GFP-peptide fusion (yeast GPS) (PSI 1-4); higher = more stable; sorted into four equal gates, so the index is relative within each strain; details: doa10∆

residueString: KVGYTLPSHIISTSDVT [RPL4A]
protein stability index: 2.49
//
residueString: LPKLKATGHRVLIFFQM [SNF2]
protein stability index: 1.69
//
residueString: SNHNNLNLNNSELQPQN [SNF2]
protein stability index: 3.02
//
residueString: KAGGECITLDQLAVRAP [RPL18A]
protein stability index: 2.1
//
residueString: LVGSWKKDRATGDADEP [RPO21]
protein stability index: 3.14
//
residueString: VRKETYSSYIYKVLKQT [HTB2]
protein stability index: 3.08
//
residueString: IEIKISDPLTVFSESCS [SNU114]
protein stability index: 2.33
//
residueString: GRSRDGGLRFGEMERDC [RPB2]
protein stability index: 2.86
//
residueString: SKVTVPPSKHSTLTLSD [ESC2]
protein stability index: 3.29
//
residueString: VQRQIEQQKGQQTAQTQ [SNF5]
protein stability index: 3.41
//
residueString: DTKNSKSESPSEVLVDT [ISW2]
protein stability index: 3.11
//
residueString: FDKVEVQVRSVMDPITS [DIS3]
protein stability index: 2.78
//
residueString: TKNDAGSKQILKTEAAN [BRR2]
protein stability index: 2.85
//
residueString: IELLSDLINILEKKGFS [LIN1]
protein stability index: 1.22
//
residueString: AQRLQISDYQQLESIYF [SWI1]
protein stability index: 2.38
//
residueString: NSESTTQGGNVNLDNTA [RPT5]
protein stability index: 3.53
//
residueString: NTNPSPLKTQTKNGTPN [GAL11]
protein stability index: 2.91
//
residueString: RSKFGGDFLDFQVHERL [ARP7]
protein stability index: 3.15
//
residueString: KAINQELEDVAVKKLYA [YCS4]
protein stability index: 3.26
//
residueString: VRMRLAQLTHSLRRIRD [MED8]
protein stability index: 1.45
//
residueString: LMTKLNSFKLFKAEKLQ [RPC17]
protein stability index: 1.97
//
residueString: NNTNTDNVSGLTRNAPL [SNF2]
protein stability index: 3.06
//
residueString: TKLNLHCVIEDDESEQI [RRI1]
protein stability index: 2.2
//
residueString: GGIVTVRSEMGEPIHKI [FAS1]
protein stability index: 3.29
//
residueString: SRRTVNKEMETQRIMTN [YLR018C/POM34]
protein stability index: 3.51
//
residueString: DDSFSLLRIQMLLCVSY [PCI8]
protein stability index: 2.1
//
residueString: GSKENYQELGSLQSSSQ [MED2]
protein stability index: 3.16
//
residueString: PAGHAGNPTNISSPIVA [YDL088C/ASM4]
protein stability index: 2.52
//
residueString: TPYNADFDGDEMNLHVP [RPO31]
protein stability index: 2.83
//
residueString: FEEDSDLALPPPPPPPP [PRP8]
protein stability index: 3.08
//
residueString: ISSLFTITTILILGLNT [YML103C/NUP188]
protein stability index: 1.51
//
residueString: NKGAKAEDVALNEQVKK [NAS6]
protein stability index: 2.98
//
residueString: SATPNAAAFSQQQNASS [GAL11]
protein stability index: 2.94
//
residueString: INQIFSPEEQRSLLQEA [GAL11]
protein stability index: 2.95
//
residueString: KTYGISDDIISQVDPIT [FAS2]
protein stability index: 1.71
//
residueString: PPQQTYHFPIFNKYADP [RPN4]
protein stability index: 2.52
//
residueString: YAIKKKDELERVAKSNR [RPS5]
protein stability index: 3.41
//
residueString: KEEFSSAENRDEKDYLT [CSE2]
protein stability index: 2.79
//
residueString: EEEYDETHETNISNAKL [YAR002W/NUP60]
protein stability index: 3.35
//
residueString: LSCQYDNTVRTSANGIV [RPO31]
protein stability index: 1.32
//
residueString: LHRLTPKNVKGEEDADE [RPN1]
protein stability index: 3.65
//
residueString: CVQLIKCLVEKSICFEN [SWI1]
protein stability index: 2.49
//
residueString: LLPPIKIELIKNNLLIP [RPN12]
protein stability index: 2.16
//
residueString: AGEFGLKNKREIYRISF [RPS9B]
protein stability index: 2.56
//
residueString: NLHAEGWPKLQLGPQTP [ECM29]
protein stability index: 2.43
//
residueString: ISLSFSRPASYGYFSVG [SIR4]
protein stability index: 1.78
//
residueString: SSTKDYLTPPHECRLRD [RET1]
protein stability index: 3.34
//
residueString: VVDTEETATLIMNELYR [SMC3]
protein stability index: 3.02
//
residueString: SSFNKRSKFLSTVAKFL [IRR1]
protein stability index: 2.76
//
residueString: KSVRILKNKAEYLKNCP [RPC40]
protein stability index: 3.13
//
residueString: SKLLVPQKNVKIQVVDR [PRE10]
protein stability index: 3.02
//
residueString: SILDDIKLSLKDKTKNI [SMC4]
protein stability index: 2.88
//
residueString: TKPAIRRLARRGGVKRI [HHF1]
protein stability index: 3.04
//
residueString: YDPKDGLYKMMEERDGA [AAR2]
protein stability index: 3.41
//
residueString: NLGRAVFWEIQSRVPTS [PRP8]
protein stability index: 2.05
//
residueString: ENFLKEVFQLRIFVKEI [GAL11]
protein stability index: 1.81
//
residueString: CHDELKALPMLEQVEFE [MED4]
protein stability index: 3.17
//
residueString: LFMKSLIENCKKRNMPL [SWI1]
protein stability index: 2.68
//
residueString: FPVDPTTPVKLGPGIYC [RRP40]
protein stability index: 2.41
//
residueString: SKKRQAEKLVPLPICHA [YML031W/NDC1]
protein stability index: 2.33
